Entry source: patent US20220411517A1

- target-of-assay: T1, human IL1RAcP domain 1/2 (AG-12337) (human)
- T1 construct: also called domain 1/2 of human IL-1RAcP
- assay-details: ELISA on directly coated human IL-1RAcP domain 1/2 (AG-12337), IgG1f_AEASS titrated, S/BG
measured-attribute: EC50 (read off the curve)

{"binder": "Y024084_h_IgG1f_AEASS (antibody, V domains shown, also called Morphosys 24084; Mor Y024084) VH: QVQLVQSGAEVKKPGASVKVSCKASGYTFTSYYMHWVRQAPGQGLEWMGIINPSGGSTSYAQKFQGRVTMTRDTSTSTVYMELSSLRSEDTAVYYCARGFVTSGIDYWGQGTLVTVSS VL: QSVLTQPPSVSAAPGQKVTISCSGSSSNIGNNYVSWYQQLPGTAPKLLIYDNNKRPSGIPDRFSGSKSGTSATLGITGLQTEDEADYYCQTWTYTGRLWIVFGGGTKLTVLG", "measured-attribute": "EC50 (read off the curve)", "result": "~3 nM"}

Proceed to the following item.
Name the reported EC50 (read off the curve) value associated with the binder R001031 (CAN04) (antibody, human IgG1, kappa, V domains shown, Variable domains of prior art CAN04 on human IgG1 kappa constant regions with AEASS) VH: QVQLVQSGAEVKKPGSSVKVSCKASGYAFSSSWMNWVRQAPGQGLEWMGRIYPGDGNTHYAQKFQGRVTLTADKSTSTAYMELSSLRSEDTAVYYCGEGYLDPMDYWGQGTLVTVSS VL: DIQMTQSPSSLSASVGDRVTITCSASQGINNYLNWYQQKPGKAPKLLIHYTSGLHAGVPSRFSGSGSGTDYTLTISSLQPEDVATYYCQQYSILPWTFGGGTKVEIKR
~3 nM
